Source listed as ChEMBL document CHEMBL4431374.

Tested on: Mycobacterium tuberculosis
Assay Procedure: Antitubercular activity against dormant Mycobacterium tuberculosis H37Ra ATCC 25177 after 12 days by XTT reduction menadione assay
Format: functional
Recorded Conditions: H37Ra ATCC 25177, 288 h
Quantity Name: log10(MIC90) (log10 of the value in µg/mL)
In plain terms, each number is the log10 of measured MIC90 in µg/mL.

What value of log10(MIC90) on Mycobacterium tuberculosis does O=C(CC(=O)c1cc(Br)ccc1O)c1cc2ccccc2s1 have?
0.42

What value of log10(MIC90) on Mycobacterium tuberculosis does Cc1ccc(C(=O)CC(=O)c2cc3ccccc3s2)c(O)c1 have?
0.64

What value of log10(MIC90) on Mycobacterium tuberculosis does O=C(CC(=O)c1ccccc1O)c1cc2ccccc2s1 have?
0.31

What value of log10(MIC90) on Mycobacterium tuberculosis does NNC(=O)c1ccncc1 have?
-1.12

What value of log10(MIC90) on Mycobacterium tuberculosis does Cc1ccc2oc(-c3cc4ccccc4s3)cc(=O)c2c1 have?
1.48

What value of log10(MIC90) on Mycobacterium tuberculosis does O=C(CC(=O)c1cc(Cl)ccc1O)c1cc2ccccc2s1 have?
0.45

What value of log10(MIC90) on Mycobacterium tuberculosis does Cc1cc2oc(-c3cc4ccccc4s3)cc(=O)c2cc1Cl have?
1.39

What value of log10(MIC90) on Mycobacterium tuberculosis does CO[C@H]1/C=C/O[C@@]2(C)Oc3c(C)c(O)c4c(O)c(c(/C=N/N5CCN(C)CC5)c(O)c4c3C2=O)NC(=O)/C(C)=C\C=C\[C@H](C)[C@H](O)[C@@H](C)[C@@H](O)[C@@H](C)[C@H](OC(C)=O)[C@@H]1C have?
-1.37

====

Assay Procedure: Selectivity index, ratio of GI50 for human PANC1 cells to MIC90 for active Mycobacterium bovis BCG ATCC 35734
Format: toxicity
Recorded Conditions: PANC-1 cells, read-out: Selectivity Index
Provide the recorded selectivity ratio for the entries that follow.

So what's the measured selectivity ratio for this one? O=C(CC(=O)c1cc(Br)ccc1O)c1cc2ccccc2s1
> 10

So what's the measured selectivity ratio for this one? Cc1ccc2oc(-c3cc4ccccc4s3)cc(=O)c2c1
> 20

====

Assay Procedure: Cytotoxicity against human THP1 cells assessed as growth inhibition after 72 hrs by MTT assay
Assay type: cell-based, THP-1
Recorded Conditions: THP-1 cells
Provide the recorded GI50 at 72 h for the entries that follow.

So what's the measured GI50 at 72 h for this one? Cc1ccc(O)c(C(=O)CC(=O)c2cc3ccccc3s2)c1
> 100 mg/L

So what's the measured GI50 at 72 h for this one? O=C(CC(=O)c1cc(Cl)ccc1O)c1cc2ccccc2s1
7.48 mg/L

So what's the measured GI50 at 72 h for this one? O=C(CC(=O)c1ccccc1O)c1cc2ccccc2s1
> 100 mg/L

So what's the measured GI50 at 72 h for this one? O=C(CC(=O)c1cc(Cl)cc(Cl)c1O)c1cc2ccccc2s1
> 100 mg/L

So what's the measured GI50 at 72 h for this one? Cc1cc(O)c(C(=O)CC(=O)c2cc3ccccc3s2)cc1Cl
> 100 mg/L

So what's the measured GI50 at 72 h for this one? Cc1cc2oc(-c3cc4ccccc4s3)cc(=O)c2cc1Cl
> 100 mg/L

So what's the measured GI50 at 72 h for this one? Cc1ccc2oc(-c3cc4ccccc4s3)cc(=O)c2c1
> 100 mg/L

So what's the measured GI50 at 72 h for this one? O=C(CC(=O)c1cc(Br)ccc1O)c1cc2ccccc2s1
> 100 mg/L

So what's the measured GI50 at 72 h for this one? Cc1ccc(C(=O)CC(=O)c2cc3ccccc3s2)c(O)c1
> 100 mg/L

So what's the measured GI50 at 72 h for this one? CC(=O)O[C@H]1C(=O)[C@@]2(C)[C@H]([C@H](OC(=O)c3ccccc3)[C@]3(O)C[C@H](OC(=O)[C@H](O)[C@@H](NC(=O)c4ccccc4)c4ccccc4)C(C)=C1C3(C)C)[C@]1(OC(C)=O)CO[C@@H]1C[C@@H]2O
0.133 mg/L

====

Assay Procedure: Selectivity index, ratio of GI50 for human HeLa cells to MIC90 for active Mycobacterium bovis BCG ATCC 35734
Format: toxicity
Recorded Conditions: read-out: Selectivity Index
Quantity Name: selectivity ratio

So what's the measured selectivity ratio for this one? Cc1cc2oc(-c3cc4ccccc4s3)cc(=O)c2cc1Cl
> 35

So what's the measured selectivity ratio for this one? Cc1ccc(C(=O)CC(=O)c2cc3ccccc3s2)c(O)c1
> 13

So what's the measured selectivity ratio for this one? Cc1ccc2oc(-c3cc4ccccc4s3)cc(=O)c2c1
> 20

====

Provide the recorded GI50 at 90 h for the entries that follow.
Assay Procedure: Cytotoxicity against human PANC1 cells assessed as growth inhibition after 90 hrs by MTT assay
Format: cell-based, PANC-1
Recorded Conditions: PANC-1 cells
Give your result in µg/mL as a bare value.

So what's the measured GI50 at 90 h for this one? O=C(CC(=O)c1cc(Br)ccc1O)c1cc2ccccc2s1
18.3

So what's the measured GI50 at 90 h for this one? O=C(CC(=O)c1ccccc1O)c1cc2ccccc2s1
7.77

So what's the measured GI50 at 90 h for this one? Cc1ccc(O)c(C(=O)CC(=O)c2cc3ccccc3s2)c1
15.8

So what's the measured GI50 at 90 h for this one? Cc1ccc(C(=O)CC(=O)c2cc3ccccc3s2)c(O)c1
9.24

So what's the measured GI50 at 90 h for this one? O=C(CC(=O)c1cc(Cl)ccc1O)c1cc2ccccc2s1
8.44

So what's the measured GI50 at 90 h for this one? O=C(CC(=O)c1cc(Cl)cc(Cl)c1O)c1cc2ccccc2s1
26.2

So what's the measured GI50 at 90 h for this one? Cc1cc(O)c(C(=O)CC(=O)c2cc3ccccc3s2)cc1Cl
20.4

So what's the measured GI50 at 90 h for this one? Cc1ccc2oc(-c3cc4ccccc4s3)cc(=O)c2c1
12.9

So what's the measured GI50 at 90 h for this one? CC(=O)O[C@H]1C(=O)[C@@]2(C)[C@H]([C@H](OC(=O)c3ccccc3)[C@]3(O)C[C@H](OC(=O)[C@H](O)[C@@H](NC(=O)c4ccccc4)c4ccccc4)C(C)=C1C3(C)C)[C@]1(OC(C)=O)CO[C@@H]1C[C@@H]2O
0.127

====

Provide the recorded MIC90 for the entries that follow.
Test system: Mycobacterium tuberculosis
Assay Procedure: Antitubercular activity against active Mycobacterium tuberculosis H37Ra ATCC 25177 infected in human THP1 cells after 8 days by nitrate reductase assay
Assay type: functional
Recorded Conditions: H37Ra ATCC 25177, 192 h
Give your result in µg/mL as a bare value.

So what's the measured MIC90 for this one? O=C(CC(=O)c1ccccc1O)c1cc2ccccc2s1
2.96

So what's the measured MIC90 for this one? Cc1ccc2oc(-c3cc4ccccc4s3)cc(=O)c2c1
8.39

So what's the measured MIC90 for this one? O=C(CC(=O)c1cc(Br)ccc1O)c1cc2ccccc2s1
4.94

So what's the measured MIC90 for this one? Cc1cc2oc(-c3cc4ccccc4s3)cc(=O)c2cc1Cl
7.67

So what's the measured MIC90 for this one? O=C(CC(=O)c1cc(Cl)ccc1O)c1cc2ccccc2s1
2.83

So what's the measured MIC90 for this one? CO[C@H]1/C=C/O[C@@]2(C)Oc3c(C)c(O)c4c(O)c(c(/C=N/N5CCN(C)CC5)c(O)c4c3C2=O)NC(=O)/C(C)=C\C=C\[C@H](C)[C@H](O)[C@@H](C)[C@@H](O)[C@@H](C)[C@H](OC(C)=O)[C@@H]1C [RIFAMPIN]
0.5

So what's the measured MIC90 for this one? Cc1ccc(C(=O)CC(=O)c2cc3ccccc3s2)c(O)c1
25.8

So what's the measured MIC90 for this one? NNC(=O)c1ccncc1 [ISONIAZID]
0.05

====

Assay Procedure: Selectivity index, ratio of GI50 for human HeLa cells to MIC90 for dormant Mycobacterium bovis BCG ATCC 35734
Assay type: toxicity
Recorded Conditions: read-out: Selectivity Index
Provide the recorded selectivity ratio for the entries that follow.

So what's the measured selectivity ratio for this one? Cc1ccc2oc(-c3cc4ccccc4s3)cc(=O)c2c1
> 20

So what's the measured selectivity ratio for this one? Cc1ccc(C(=O)CC(=O)c2cc3ccccc3s2)c(O)c1
> 13

So what's the measured selectivity ratio for this one? Cc1cc2oc(-c3cc4ccccc4s3)cc(=O)c2cc1Cl
> 35

====

Test system: THP-1
Assay Procedure: Cytotoxicity against human THP1 cells assessed as growth inhibition after 72 hrs by MTT assay
Format: cell-based
Recorded Conditions: thp-1, 72 h
Quantity Name: GI90

So what's the measured GI90 for this one? Cc1cc(O)c(C(=O)CC(=O)c2cc3ccccc3s2)cc1Cl
> 100 µg/mL

So what's the measured GI90 for this one? Cc1ccc2oc(-c3cc4ccccc4s3)cc(=O)c2c1
> 100 µg/mL

So what's the measured GI90 for this one? Cc1cc2oc(-c3cc4ccccc4s3)cc(=O)c2cc1Cl
> 100 µg/mL

So what's the measured GI90 for this one? O=C(CC(=O)c1cc(Br)ccc1O)c1cc2ccccc2s1
> 100 µg/mL

So what's the measured GI90 for this one? Cc1ccc(O)c(C(=O)CC(=O)c2cc3ccccc3s2)c1
> 100 µg/mL

So what's the measured GI90 for this one? Cc1ccc(C(=O)CC(=O)c2cc3ccccc3s2)c(O)c1
> 100 µg/mL

So what's the measured GI90 for this one? O=C(CC(=O)c1ccccc1O)c1cc2ccccc2s1
> 100 µg/mL

So what's the measured GI90 for this one? CC(=O)O[C@H]1C(=O)[C@@]2(C)[C@H]([C@H](OC(=O)c3ccccc3)[C@]3(O)C[C@H](OC(=O)[C@H](O)[C@@H](NC(=O)c4ccccc4)c4ccccc4)C(C)=C1C3(C)C)[C@]1(OC(C)=O)CO[C@@H]1C[C@@H]2O [PACLITAXEL]
5.81 µg/mL

So what's the measured GI90 for this one? O=C(CC(=O)c1cc(Cl)ccc1O)c1cc2ccccc2s1
> 30 µg/mL

So what's the measured GI90 for this one? O=C(CC(=O)c1cc(Cl)cc(Cl)c1O)c1cc2ccccc2s1
> 100 µg/mL
